# TEST SUMMARY: qHTS assay to identify small molecule agonists of the estrogen receptor beta (ER-beta) signaling pathway - cell viability counter screen (AID 1259380); further: nearly all actives have a fitted effect of over 30% in size
# RECORDED CONDITIONS: ER-beta-bla HEK293T viability, CellTiter-Glo luminescence, 16 h; series mostly up to 92.4 µM
# Text: National Center for Advancing Translational Sciences [NCATS] NIH Chemical Genomics Center [NCGC] U.S. Environmental Protection Agency [EPA] National Institutes of Environmental Health Sciences [NIEHS] National Toxicology Program [NTP] U.S. Food and Drug Administration [FDA] Estrogen receptor (ER), a nuclear hormone receptor, plays an important role in development, metabolic homeostasis and reproduction. […]
Inconclusive results are not listed. Calls of active or inactive are those of the source. The call rests on the fitted dose curve; in most records, active means well fitted cell-killing curve with a large enough effect in the repeat runs; inconclusive means weak or mixed curves, or effect the other way; inactive means flat fitted curve, though single readings scatter.
Please state which outcome applies, choosing from active, inactive

Lab log entry: CCCC1CCCC(=O)O1 (centres undefined) — outcome as called in the assay?
inactive

Lab log entry: `CC/C=C/CCO` — outcome as called in the assay?
inactive

Lab log entry: `Cc1nc2sccn2c(=O)c1CCN1CCC(=C(c2ccc(F)cc2)c2ccc(F)cc2)CC1` — outcome as called in the assay?
active

Lab log entry: CC(C)(C)NCC(O)COc1ccc(NC(=O)NC2CCCCC2)cc1 (centres undefined) — outcome as called in the assay?
inactive

Lab log entry: `CCC(CC)C(=O)O` — outcome as called in the assay?
inactive

Lab log entry: `CC(C)(C)N` — outcome as called in the assay?
inactive

Lab log entry: N#CCCCC(C#N)CCC#N (centres undefined) — outcome as called in the assay?
inactive

Lab log entry: `C=C(C)C(=O)OCCCCCCCCCCOC(=O)C(=C)C` — outcome as called in the assay?
inactive

Lab log entry: `O=C(O)c1cccc(C(=O)O)c1C(=O)O` — outcome as called in the assay?
active

Lab log entry: `COc1ccc(/C=C/c2cc(OC)cc(=O)o2)cc1` — outcome as called in the assay?
inactive

Lab log entry: `CC1(C)CC(O)CC(C)(C)N1[O]` — outcome as called in the assay?
inactive

Lab log entry: `Nc1ccc(-c2ccc(F)cc2)cc1` — outcome as called in the assay?
inactive

Lab log entry: `C=CC(=O)OCCCCCCCCCC` — outcome as called in the assay?
inactive

Lab log entry: `CCOCCn1c(N2CCCN(C)CC2)nc2ccccc21` — outcome as called in the assay?
inactive

Data provenance is PubChem BioAssay (Tox21).
